Values from paper PMC5652740

Test: Pharmacokinetic analysis in mice after i.p. injection
Assay type: in vivo
Settings: male, BALB/cJ, mouse, plasma, ip, 30 mg/kg, mouse plasma after i.p. 30 mg/kg 1E7-03; parent and metabolites DP1, DP3
endpoint: Tmax
Show the value, then the unit it is measured in.

// query Tmax value for entry COc1ccc(/C=C2\CCc3c2nc2ccccc2c3C(=O)OC(C)C(=O)O)cc1OC (stereo not drawn)
3 h

// query: `COc1ccc(/C=C2\CCc3c2nc2ccccc2c3C(=O)O)cc1OC`
1 h

// query: CCNC(=O)NC(=O)C(C)OC(=O)c1c2c(nc3ccccc13)/C(=C/c1ccc(OC)c(OC)c1)CC2 (stereo not drawn)
0.5 h

----------
Test: Pharmacokinetic analysis in mice after i.p. injection
Type: in vivo
Details: male, BALB/cJ, ip; mouse plasma after i.p. 30 mg/kg 1E7-03; parent and its metabolites DP1, DP3; mean, n=3
Method: The animal facilities and protocols were approved by Howard University Institutional Animal Care and Use Committee (IACUC). All experimental procedures were in accordance with the NIH Guidelines for the Care and Use of Laboratory Animals. […] The plasma concentration–time profile of each analyte was constructed and pharmacokinetic parameters were determined by non-compartmental method using Phoenix WinNonlin Version 5.3 (Pharsight Corporation, Mountain View, CA). […]
endpoint: Cmax (µM)
Hi! Could you send only the number? It should be in µM, unit omitted.

// query Cmax value for entry `COc1ccc(/C=C2\CCc3c2nc2ccccc2c3C(=O)O)cc1OC`
3.61

// query: COc1ccc(/C=C2\CCc3c2nc2ccccc2c3C(=O)OC(C)C(=O)O)cc1OC (stereo not drawn)
9.09

// query: CCNC(=O)NC(=O)C(C)OC(=O)c1c2c(nc3ccccc13)/C(=C/c1ccc(OC)c(OC)c1)CC2 (stereo not drawn)
3.43

----------
Test: 1E7-03 degradation in ferret plasma
Format: in vitro ADME
Conditions: 37°C
endpoint: remaining at 24 h, 10 µM

// query remaining at 24 h, 10 µM value for entry CCNC(=O)NC(=O)C(C)OC(=O)c1c2c(nc3ccccc13)/C(=C/c1ccc(OC)c(OC)c1)CC2 (stereo not shown) [1E7-03]
> 50%

----------
Assay: Pharmacokinetic analysis in mice after i.p. injection
Format: in vivo
Settings: male, BALB/cJ, ip; mouse plasma after i.p. 30 mg/kg 1E7-03; parent and metabolites DP1, DP3
Record form. Attribute: AUC(0-t). Fill in for each entry.
Hi! Could you send only the number? It should be in µM·h, unit omitted.

// query AUC(0-t) value for entry COc1ccc(/C=C2\CCc3c2nc2ccccc2c3C(=O)OC(C)C(=O)O)cc1OC (stereo not drawn)
124

// query: `COc1ccc(/C=C2\CCc3c2nc2ccccc2c3C(=O)O)cc1OC`
30.7

// query: CCNC(=O)NC(=O)C(C)OC(=O)c1c2c(nc3ccccc13)/C(=C/c1ccc(OC)c(OC)c1)CC2 (stereo not drawn)
12.2
